# Tested On: UniProt:P12527
# Sequence (P12527 whole entry): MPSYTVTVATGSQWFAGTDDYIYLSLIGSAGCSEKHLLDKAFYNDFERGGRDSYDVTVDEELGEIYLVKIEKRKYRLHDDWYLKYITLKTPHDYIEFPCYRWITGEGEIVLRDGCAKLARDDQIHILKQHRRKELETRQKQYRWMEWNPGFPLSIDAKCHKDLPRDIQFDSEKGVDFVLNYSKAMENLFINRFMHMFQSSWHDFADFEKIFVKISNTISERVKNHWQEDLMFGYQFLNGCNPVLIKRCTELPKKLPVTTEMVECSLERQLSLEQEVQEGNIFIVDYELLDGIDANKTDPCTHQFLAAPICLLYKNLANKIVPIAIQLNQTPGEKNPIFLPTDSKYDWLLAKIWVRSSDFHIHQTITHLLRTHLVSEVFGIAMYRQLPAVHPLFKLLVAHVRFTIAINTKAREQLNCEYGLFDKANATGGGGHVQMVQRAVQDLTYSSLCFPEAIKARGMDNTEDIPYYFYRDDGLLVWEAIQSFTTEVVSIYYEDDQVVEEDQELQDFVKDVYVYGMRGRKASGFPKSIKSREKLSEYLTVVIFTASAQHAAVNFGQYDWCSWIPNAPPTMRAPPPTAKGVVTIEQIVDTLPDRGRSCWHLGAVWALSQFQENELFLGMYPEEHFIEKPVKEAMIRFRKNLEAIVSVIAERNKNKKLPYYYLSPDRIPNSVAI
# Experiment Description: inhibitory activity against 5-lipoxygenase in rat basophilic leukemia cell line.
Observed Property: IC50 (µM)
Numeric answer only, unit µM assumed.

q: Bench note: what IC50 did C/C(=C/C(=O)c1ccc(F)cc1)N(O)Cc1ccccc1 show?
a: 0.25

q: Bench note: what IC50 did CN(O)/C=C\C(=O)c1ccc(OCc2ccccc2)cc1 show?
a: 1.1

q: Bench note: what IC50 did O=C(/C=C\N(O)Cc1ccc(-c2ccccc2)cc1)c1ccsc1 show?
a: 3

q: Bench note: what IC50 did CC(C)(C)C(=O)/C=C\N(O)Cc1ccccc1 show?
a: 5
